Listing of recorded pIC50 by entry.
Biological target: Hepcidin (Homo sapiens, UniProt P81172)
Sequence (P81172 60-84 limits assumed): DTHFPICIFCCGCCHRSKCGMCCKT
Test: Inhibition of Hepcidin in human Huh-7 cells assessed as inhibition of BMP-7 induced hepcidin production incubated for 16 to 24 hrs by ELISA method
// pIC50 here means minus log10 of the molar concentration (mol/L)

Use these answered entries as a reference point.
>>> reading("C[C@@H]1CN(c2ccc(-c3n[nH]c4cnc(N5[C@H](C)CN(C(=O)N6CCCC6)C[C@@H]5C)nc34)cn2)CCN1")
7.55
>>> reading("COC(=O)N1C[C@@H](C)N(c2ncc3[nH]nc(-c4ccc(N5CCN(C)CC5)cc4)c3n2)[C@@H](C)C1")
7.47
>>> reading("COC(=O)N1C[C@@H](C)N(c2ncc3[nH]nc(-c4ccc(N5CCN(C)CC5)nc4)c3n2)[C@@H](C)C1")
7.24

What does the record list as pIC50 for `COC(=O)N1C[C@@H](C)N(c2ncc3[nH]nc(-c4ccc(N5CCN[C@H](C)C5)nc4)c3n2)[C@@H](C)C1` ? 8.14
